MEASURED_ON: human recombinant Btk (Homo sapiens (Human))
Sequence (Q06187 whole entry): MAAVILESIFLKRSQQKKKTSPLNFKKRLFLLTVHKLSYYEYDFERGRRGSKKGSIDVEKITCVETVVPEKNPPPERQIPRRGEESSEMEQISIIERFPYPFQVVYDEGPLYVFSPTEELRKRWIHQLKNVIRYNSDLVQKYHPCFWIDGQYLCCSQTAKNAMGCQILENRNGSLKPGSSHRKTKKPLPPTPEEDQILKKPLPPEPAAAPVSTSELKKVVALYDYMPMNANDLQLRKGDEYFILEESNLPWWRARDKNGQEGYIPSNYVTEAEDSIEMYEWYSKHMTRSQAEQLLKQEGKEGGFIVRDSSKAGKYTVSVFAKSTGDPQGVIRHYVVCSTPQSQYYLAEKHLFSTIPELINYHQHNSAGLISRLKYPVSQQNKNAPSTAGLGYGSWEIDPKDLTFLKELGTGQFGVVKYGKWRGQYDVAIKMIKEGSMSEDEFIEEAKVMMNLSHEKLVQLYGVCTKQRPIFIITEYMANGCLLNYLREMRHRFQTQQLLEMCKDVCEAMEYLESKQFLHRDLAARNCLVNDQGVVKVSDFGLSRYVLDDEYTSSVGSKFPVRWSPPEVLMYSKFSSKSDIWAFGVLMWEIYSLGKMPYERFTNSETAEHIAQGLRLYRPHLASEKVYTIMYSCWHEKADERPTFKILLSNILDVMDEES
ASSAY_METHOD_TEXT: Human Recombinant Btk Enzyme Assay
CONDITION_INFO: human recombinant Btk 1 nM, ATP 20 μM
METRIC: IC50 (nM)
Kindly answer with a numeric value in nM, unit omitted.

IC50 lookup needed for [2H]C([2H])([2H])n1c(=O)n(-c2cccc(-c3ccc(C(N)=O)c4[nH]c5cc(C(C)(C)O)cc(C)c5c34)c2C)c(=O)c2cccc(F)c21 (atropisomer, axis not shown) [Example 27] , thanks.
1.2

IC50 lookup needed for Cn1c(=O)n(-c2cccc(-c3ccc(C(N)=O)c4[nH]c5cc(C(C)(C)O)ccc5c34)c2Cl)c(=O)c2cccc(F)c21 [Example 5] , thanks.
0.9

IC50 lookup needed for COc1ccn2c(=O)n(-c3cccc(-c4ccc(C(N)=O)c5[nH]c6cc(C(C)(C)O)ccc6c45)c3C)c(=O)cc2c1 [Example 11] , thanks.
0.63

IC50 lookup needed for Cc1c(-c2ccc(C(N)=O)c3[nH]c4cc(C(C)(C)O)cc(C)c4c23)cccc1-n1c(=O)c2cccc(F)c2n(C)c1=O (single isomer, unassigned) [Example 25] , thanks.
0.7
